The measurements presented in this section are drawn from PubChem BioAssay AID687005.

procedure summary: HEK293T cell cytotoxicity, dose response, cytotoxicity control, ATP luminescence, cherry-pick samples (AID 687005)
condition: HEK293T viability, ATP luminescence (CellTiter-Glo), 48 h; at 42 µM (top of the series)
Results filed as inconclusive are left out.
result type: activity change, negative = cytotoxicity (%)

>>> recorded_number("Cc1ccc(C)c(NC(=O)C2(C)CCCN2C(=O)C(C)C)c1 (stereo not given)")
-23.6
>>> recorded_number("CCCC(=O)N1CCCC1(C)C(=O)Nc1cc(C)ccc1C (stereo not given)")
-20.6
>>> recorded_number("Cc1cccc(C)c1NC(=O)C1NC(=O)CC1c1ccccc1 (stereo not given)")
0.826
>>> recorded_number("Cc1ccc(NC(=O)C2(C)CCCN2CC(C)C)cc1C (stereo not given)")
-2.43
>>> recorded_number("CCCC(=O)N1CCCC1(C)C(=O)Nc1ccc(C)c(C)c1 (stereo not given)")
-11.7
>>> recorded_number("CCc1ccc(NC(=O)C2NC(=O)CC2c2ccccc2)cc1 (stereo not given)")
-46.7
>>> recorded_number("Cc1ccc(NC(=O)C2(C)CCN2C(=O)CC2CC2)cc1C (stereo not given)")
22.8
>>> recorded_number("CCC(=O)N1CCCC1(C)C(=O)Nc1ccc(C)c(C)c1 (stereo not given)")
-1.9
>>> recorded_number("CCCC(=O)N1CCC1(C)C(=O)Nc1cc(C)ccc1C (stereo not given)")
-18.3
>>> recorded_number("O=C(Cc1cccs1)N1CCN(c2ccccc2)CC1")
21.1
